Tested on: HT29 colon
# output must be one of active, inactive

[in] In this assay, the call recorded for C/C(CC(=O)NNc1ccc([N+](=O)[O-])cc1)=N\Nc1ccc([N+](=O)[O-])cc1 was what?
[out] inactive

[in] Which outcome was assigned to COC(=O)C(C)NP(=O)(OCc1ccc(Cn2cnc3c(=O)[nH]c(N)nc32)cc1)Oc1ccccc1 (stereo not given) in this test?
[out] inactive

[in] I'd appreciate the recorded outcome for NC1=C(Cl)C(=O)c2ccc(S(N)(=O)=O)cc2C1=O from this test.
[out] inactive

[in] // outcome(item) with item = Cn1ncc2c(/N=C/c3cccs3)[nH]c(=S)nc21
[out] inactive

[in] // return assay outcome for Cc1n[nH]c(=S)n1/N=C/c1ccc(F)c(Oc2ccccc2)c1
[out] inactive

[in] Hello, I am checking results. What call was entered for O=C(Nc1n[nH]c2nc(-c3ccco3)ccc12)C1CC1 ?
[out] inactive

[in] What is the recorded call for this compound in the test? Cc1cccc2c(N=Nc3ccc(S(N)(=O)=O)cc3)c(O)[nH]c12
[out] inactive

[in] Query: recorded result category for CCOC(=O)c1ccc(N(CCOS(C)(=O)=O)CCOS(C)(=O)=O)cc1C in this test
[out] inactive

[in] # lookup: test call for c1cc(OCCN2CCCCCC2)ccc1CNc1ccc2nc(CCC3CCCCC3)[nH]c2c1
[out] inactive

[in] // param item: Cc1c2c(nn1C(=O)c1nn(-c3ccc(Cl)cc3)cc1O)-c1ccccc1CC2 ; yields the recorded call
[out] active
